// provenance: patent US20250243171A1

Molecular target: Ba/F3 stable cells (Homo sapiens, UniProt P00533, DUP768-770, cells depend on it)
Construct: EC50 Ba/F3-EGFR D770-N771insSVD; other: Ba/F3-EGFR D770-N771insSVD cells, 72 h, CCK-8
Sequence (P00533 with tags, fused parts or gaps DUP768-770): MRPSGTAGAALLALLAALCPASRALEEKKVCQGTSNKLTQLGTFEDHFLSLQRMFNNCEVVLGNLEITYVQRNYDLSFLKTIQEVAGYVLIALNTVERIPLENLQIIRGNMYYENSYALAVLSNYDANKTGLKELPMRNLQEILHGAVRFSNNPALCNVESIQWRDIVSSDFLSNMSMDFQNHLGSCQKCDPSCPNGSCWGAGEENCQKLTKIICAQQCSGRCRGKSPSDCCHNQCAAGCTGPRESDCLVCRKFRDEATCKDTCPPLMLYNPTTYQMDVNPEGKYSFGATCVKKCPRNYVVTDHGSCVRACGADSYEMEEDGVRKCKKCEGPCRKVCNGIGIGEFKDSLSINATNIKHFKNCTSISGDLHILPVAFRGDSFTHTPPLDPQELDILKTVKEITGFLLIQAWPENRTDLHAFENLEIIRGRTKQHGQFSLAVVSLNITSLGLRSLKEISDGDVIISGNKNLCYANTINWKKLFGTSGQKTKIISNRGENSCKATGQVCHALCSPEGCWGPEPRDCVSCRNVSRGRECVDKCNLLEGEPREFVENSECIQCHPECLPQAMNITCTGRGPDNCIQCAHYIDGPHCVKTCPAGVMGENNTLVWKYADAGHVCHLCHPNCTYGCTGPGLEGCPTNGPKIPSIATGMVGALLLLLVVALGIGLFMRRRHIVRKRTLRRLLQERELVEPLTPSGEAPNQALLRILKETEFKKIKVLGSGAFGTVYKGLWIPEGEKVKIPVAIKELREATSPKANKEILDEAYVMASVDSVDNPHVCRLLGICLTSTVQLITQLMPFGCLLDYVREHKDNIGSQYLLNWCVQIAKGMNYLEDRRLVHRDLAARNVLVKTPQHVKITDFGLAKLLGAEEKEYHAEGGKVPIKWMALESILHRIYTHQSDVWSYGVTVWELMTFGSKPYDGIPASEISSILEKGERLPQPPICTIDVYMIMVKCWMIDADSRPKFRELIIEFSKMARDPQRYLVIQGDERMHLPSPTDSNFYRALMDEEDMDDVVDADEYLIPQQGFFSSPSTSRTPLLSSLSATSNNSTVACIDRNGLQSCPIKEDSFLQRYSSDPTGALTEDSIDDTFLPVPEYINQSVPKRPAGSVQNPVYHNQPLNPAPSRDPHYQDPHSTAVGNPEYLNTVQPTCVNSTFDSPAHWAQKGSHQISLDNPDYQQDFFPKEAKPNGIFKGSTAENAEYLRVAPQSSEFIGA
Assay: EC50 assay: Ba/F3 stable cell proliferation (CCK-8, 72 h)
Settings: Ba/F3-EGFR D770-N771insSVD cells
Description: 4,000 Ba/F3 stable cells/90 μL/well were plated onto 96-well cell culture plate (Grenier, Cat.No. 655180) and incubated at 37° C. with a humidified atmosphere of 5% CO2 for 2 h. Then the cells were treated with 10 μL compounds at serial titration. […] 10 μL the cell proliferation reagent CCK-8 (Dojindo, Cat.No. CK04 1000T) was added into each well and incubated the plate at 37° C. for 4 hours, the GD value was measured by SPECTRAmax plus (Molecular Devices) at 450 nm. […]
pEC50: −log10 of the molar value.
ENDPOINT_LABEL: pEC50

Answered examples (4):
[
  {
    "LINE_NOTATION": "C=CC(=O)N1CCC(Oc2cc3c(Nc4cccc5cn[nH]c45)ncnc3cc2OC)CC1",
    "TARGET_OF_ASSAY": "Ba/F3 stable cells (Homo sapiens, UniProt P00533, DUP768-770, cells depend on it)",
    "pEC50": "< 6.00"
  },
  {
    "LINE_NOTATION": "C=CC(=O)N[C@H]1C[C@@H](Oc2cc3c(Nc4ccc(Cl)c(Cl)c4)ncnc3cc2OC)C1",
    "TARGET_OF_ASSAY": "Ba/F3 stable cells (Homo sapiens, UniProt P00533, DUP768-770, cells depend on it)",
    "pEC50": "6.00 to 6.70"
  },
  {
    "LINE_NOTATION": "C=CC(=O)N1CCC(Oc2cc3c(NCc4cccc(Cl)c4)ncnc3cc2OC)CC1",
    "TARGET_OF_ASSAY": "Ba/F3 stable cells (Homo sapiens, UniProt P00533, DUP768-770, cells depend on it)",
    "pEC50": "≥ 6.70"
  },
  {
    "LINE_NOTATION": "C=CC(=O)N1CCC(Oc2cc3c(NCc4ccc(F)c(Cl)c4)ncnc3cc2OC)CC1",
    "TARGET_OF_ASSAY": "Ba/F3 stable cells (Homo sapiens, UniProt P00533, DUP768-770, cells depend on it)",
    "pEC50": "6.00 to 6.70"
  }
]

Ask: What value of measured pEC50 is listed for `C=CC(=O)N1CC(c2cc3c(Nc4ccc5c(c4)CCN5)ncnc3cc2OC)C1` ?
Reply: < 6.00

Ask: Consider the molecule `C=CC(=O)N1CCC(Oc2cc3c(Nc4ccc5sc(C)nc5c4)ncnc3cc2OC)CC1` and give its measured pEC50.
Reply: < 6.00

Ask: Which pEC50 is reported for this molecule? `C=CC(=O)N1CCC(Oc2cc3c(Nc4ccc5scnc5c4)ncnc3cc2OC)CC1`
Reply: < 6.00

* * *

Target: Ba/F3 stable cells (Homo sapiens, UniProt P00533, INS763FQEA, cells depend on it)
Construct: EC50 Ba/F3-EGFR A763-Y764insFQEA; other: Ba/F3-EGFR A763-Y764insFQEA cells, 72 h, CCK-8
Sequence (P00533 with tags, fused parts or gaps INS763FQEA): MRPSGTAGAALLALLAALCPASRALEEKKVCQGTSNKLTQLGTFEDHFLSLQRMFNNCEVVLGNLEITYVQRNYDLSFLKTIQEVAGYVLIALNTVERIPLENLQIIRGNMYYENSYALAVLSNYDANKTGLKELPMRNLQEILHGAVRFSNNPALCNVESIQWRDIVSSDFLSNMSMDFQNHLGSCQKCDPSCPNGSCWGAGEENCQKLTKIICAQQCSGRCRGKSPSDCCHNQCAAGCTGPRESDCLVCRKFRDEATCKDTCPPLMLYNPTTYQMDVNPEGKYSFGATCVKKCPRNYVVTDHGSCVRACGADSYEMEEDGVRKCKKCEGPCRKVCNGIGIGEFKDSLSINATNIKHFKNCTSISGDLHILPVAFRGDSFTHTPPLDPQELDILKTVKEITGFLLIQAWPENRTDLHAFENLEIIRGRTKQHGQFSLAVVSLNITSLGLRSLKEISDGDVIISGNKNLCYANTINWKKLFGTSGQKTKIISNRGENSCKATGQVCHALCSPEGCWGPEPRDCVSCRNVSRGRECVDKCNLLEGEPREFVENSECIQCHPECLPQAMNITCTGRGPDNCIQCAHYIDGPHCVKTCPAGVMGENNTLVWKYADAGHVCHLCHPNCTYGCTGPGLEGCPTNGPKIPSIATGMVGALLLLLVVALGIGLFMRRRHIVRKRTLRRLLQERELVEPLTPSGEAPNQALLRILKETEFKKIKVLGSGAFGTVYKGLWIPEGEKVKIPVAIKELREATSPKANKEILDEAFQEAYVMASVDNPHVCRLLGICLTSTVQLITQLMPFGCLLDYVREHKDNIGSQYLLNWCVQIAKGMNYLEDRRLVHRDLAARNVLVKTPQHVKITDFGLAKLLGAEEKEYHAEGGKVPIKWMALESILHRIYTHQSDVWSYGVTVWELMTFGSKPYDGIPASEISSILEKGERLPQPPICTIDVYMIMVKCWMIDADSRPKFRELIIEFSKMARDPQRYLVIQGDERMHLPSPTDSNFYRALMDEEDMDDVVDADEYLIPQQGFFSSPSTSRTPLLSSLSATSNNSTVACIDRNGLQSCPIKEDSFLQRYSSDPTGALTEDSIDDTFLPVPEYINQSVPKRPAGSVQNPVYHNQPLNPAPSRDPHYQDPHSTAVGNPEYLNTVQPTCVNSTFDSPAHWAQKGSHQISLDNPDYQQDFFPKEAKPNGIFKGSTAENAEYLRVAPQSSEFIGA
Test: EC50 assay: Ba/F3 stable cell proliferation (CCK-8, 72 h)
Details: Ba/F3-EGFR A763-Y764insFQEA cells
ENDPOINT_LABEL: EC50

Reference set, count: 3
[
  {
    "COMPOUND": "C=CC(=O)N1CCC(Oc2cc3c(Nc4ccc5c(ccn5C)c4)ncnc3cc2OC)CC1 [Compound 170]",
    "VAL": "≤ 200 nM"
  },
  {
    "COMPOUND": "C=CC(=O)N1C2CCCC1CC(Oc1cc3c(Nc4cccc5c4CCC5)ncnc3cc1OC)C2 (stereo not drawn) [Compound 182]",
    "VAL": "≤ 200 nM"
  },
  {
    "COMPOUND": "C=CC(=O)NC1CC(Oc2cc3c(Nc4ccc(F)c(Cl)c4)ncnc3cc2OC)C1 (stereo not drawn) [Compound 85]",
    "VAL": "≤ 200 nM"
  }
]

Ask: Item C#CC(=O)N1CCC(Oc2cc3c(Nc4cccc5ccccc45)ncnc3cc2OC)CC1 [Compound 54] has what recorded EC50?
Reply: ≤ 200 nM

Ask: Param item = C=CS(=O)(=O)N1CCC(Oc2c(OC)cc3ncnc4c3c2NC(=O)N4c2ccc(Cl)c(Cl)c2F)CC1 [Compound 225] ; retrieve measured EC50.
Reply: ≤ 200 nM
